test system: SK-MEL-2 melanoma; assay: NCI-60 one-dose screen, 48 h (100 = growth as untreated, 0 = no growth, -100 = all killed); conditions: 10 µM unless noted
The panel holds about 83,000 compounds, 20% with a hit somewhere; the sample as a whole holds those more often.
Property Label: growth (%)
// note: answer is a bare numeric in %

Known growth results, listed for orientation:
In: For `O=CNc1cccc(-n2cnc3cc(-c4ccc(O)cc4)ccc32)c1` , what is its reported growth?
Out: 79.2

In: Entry `CC[C@]12C=CCN3CC[C@]4(C(=C(C(=O)OC)C1)Nc1cc(OC)c([C@@H]5[C@H]6O[C@H]6[C@@]6(CC)CC(C(=O)OC)=C7Nc8cc(O)ccc8[C@@]78CCN5[C@@H]68)cc14)[C@@H]32` has what growth?
Out: -67.3

In: For the compound shown here, `CN1CCN(c2ccc3c4c(cccc24)C(=O)N(c2cccc(-c4nn(-c5ccccc5)cc4-c4nc5ccccc5s4)c2)C3=O)CC1` , give the reported growth.
Out: 120

In: Give its growth value. Item: `COC(=O)c1c(C(=O)OC)c2ccc3c4ccccc4ccc3n2c1C(=O)OC`
Out: 108

In: Record request: growth value, item `COc1ccc(N=Nc2c(N)nn3c(-c4ccc5c(c4)C=S=C5)ccnc23)cc1`
Out: 93.4

Continuing:
In: Which growth reading was recorded for the compound `CCOC(=O)c1ccc(NC(=S)NC(=O)c2cccc(NC(=O)c3ccc(C)cc3)c2)cc1` ?
Out: 88.9

In: Suppose we examine the compound `N#Cc1c(-c2ccc(F)cc2)nc(SCc2ccc(F)cc2)nc1N1CCNCC1` ; what growth value has been reported?
Out: -73

In: Could you share which growth value was measured for `COc1cc(CNC(=O)C[C@H](C)CCC=C(C)C)ccc1OCc1cn(-c2ccc(Cl)cc2Cl)nn1` ?
Out: 71.7

Recorded values, source PubChem BioAssay (NCI).
